Target: PotF (Escherichia coli, UniProt P31133, A182D/S87Y)
Sequence (P31133 27-370 S87Y/A182D): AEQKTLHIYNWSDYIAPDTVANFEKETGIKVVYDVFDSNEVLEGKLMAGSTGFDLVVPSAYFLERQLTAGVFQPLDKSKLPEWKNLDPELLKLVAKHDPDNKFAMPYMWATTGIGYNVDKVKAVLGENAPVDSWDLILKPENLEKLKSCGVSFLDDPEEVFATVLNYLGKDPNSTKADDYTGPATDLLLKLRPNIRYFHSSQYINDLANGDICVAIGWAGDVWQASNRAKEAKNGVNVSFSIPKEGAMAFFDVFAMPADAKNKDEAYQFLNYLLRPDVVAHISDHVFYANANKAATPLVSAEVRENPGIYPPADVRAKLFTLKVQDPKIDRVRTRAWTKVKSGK
Experiment: isothermal titration calorimetry; crystal structure of the complex solved here
TEST_READOUT: pKd
// field semantics: pKd = negative decimal log of concentration (mol/L)

Any idea what pKd was measured for `N=C(N)NCCCCN` ?
6.52
